assay: Phase 1 multiple-dose study, plasma PK; type: in vivo, human; details: both sexes, human, plasma, oral; Day 1, single 3 mg dose, Cohort 1; read-out: plasma geometric mean AUC0-inf
Assay metric: AUC(0-inf) (ng·h/mL)
Respond with the bare value in ng·h/mL.

Item: C[C@H]1CN2CCNCc3ccc(C(=O)NCC(F)F)c1c32 | AUC(0-inf): 21.3

====

assay: Phase 1 multiple-dose study, plasma PK; format: in vivo, human; conditions: both sexes, human, plasma, oral, 15 mg, Day 8; Cohort 4A (15 mg BID); read-out: Plasma Tmax, median (minimum, maximum)
Assay metric: Tmax (min)
Respond with the bare value in min.

Item: C[C@H]1CN2CCNCc3ccc(C(=O)NCC(F)F)c1c32 [Compound 1] | Tmax: 33

====

assay: Phase 1 multiple-dose study, plasma PK; assay type: in vivo, human; settings: both sexes, human, plasma, oral, 15 mg, Day 8; Cohort 4A (15 mg BID); read-out: Plasma Cmax, geometric mean (geometric CV %)
Assay metric: Cmax (ng/mL)
Respond with the bare value in ng/mL.

Item: C[C@H]1CN2CCNCc3ccc(C(=O)NCC(F)F)c1c32 | Cmax: 44.8

====

assay: Phase 1 multiple-dose study, plasma PK; assay type: in vivo, human; conditions: both sexes, human, plasma, oral, 12 mg, Day 10; Cohort 3 (12 mg BID); read-out: Plasma Cmax, geometric mean (geometric CV %)
Assay metric: Cmax
State the value, then name its unit.

Item: C[C@H]1CN2CCNCc3ccc(C(=O)NCC(F)F)c1c32 | Cmax: 31.3 ng/mL

====

test: Phase 1 multiple-dose study, plasma PK; type: in vivo, human; settings: both sexes, human, plasma, oral, 3 mg, Day 1, single 3 mg dose, Cohort 1; read-out: apparent terminal half-life (converted)
Assay metric: half-life (h)
Respond with the bare value in h.

Item: C[C@H]1CN2CCNCc3ccc(C(=O)NCC(F)F)c1c32 | half-life: 3.1

====

Test: Phase 1 multiple-dose study, plasma PK
Format: in vivo, human
Settings: both sexes, human, plasma, oral, 6 mg, Day 8; Cohort 1 (6 mg TID); read-out: Plasma T1/2, mean (SD) (converted)
Protocol: Subjects were enrolled to 1 of 2 dosage regimens. Subject enrollment was stratified by sex to ensure approximate sex balance in each cohort. Morning doses were administered following a standard light breakfast (e.g., milk and cereal, toast, and fruit) on all days. TID dosing (three times a day) was approximately 8 hours apart. Subjects fasted from midnight onwards, until the morning breakfast each day. […]
Assay metric: half-life (h)
Respond with the bare value in h.

Item: C[C@H]1CN2CCNCc3ccc(C(=O)NCC(F)F)c1c32 | half-life: 4.49

====

Assay: Phase 1 multiple-dose study, plasma PK
Format: in vivo, human
Settings: both sexes, human, plasma, oral, 6 mg, Day 9; Cohort 1 (6 mg TID); read-out: Plasma Tmax, median (minimum, maximum)
Description: Subjects were enrolled to 1 of 2 dosage regimens. Subject enrollment was stratified by sex to ensure approximate sex balance in each cohort. Morning doses were administered following a standard light breakfast (e.g., milk and cereal, toast, and fruit) on all days. TID dosing (three times a day) was approximately 8 hours apart. Subjects fasted from midnight onwards, until the morning breakfast each day. […]
Assay metric: Tmax (min)
Respond with the bare value in min.

Item: C[C@H]1CN2CCNCc3ccc(C(=O)NCC(F)F)c1c32 [Compound 1] | Tmax: 56.4

====

Test: Phase 1 multiple-dose study, plasma PK
Assay type: in vivo, human
Conditions: both sexes, human, plasma, oral, 15 mg, Day 9; Cohort 4A (15 mg BID); read-out: Plasma AUCtau, geometric mean (geometric CV %)
Protocol: Subjects were enrolled to 1 of 2 dosage regimens. Subject enrollment was stratified by sex to ensure approximate sex balance in each cohort. Morning doses were administered following a standard light breakfast (e.g., milk and cereal, toast, and fruit) on all days. TID dosing (three times a day) was approximately 8 hours apart. Subjects fasted from midnight onwards, until the morning breakfast each day. […]
Assay metric: AUC (ng·h/mL)
Respond with the bare value in ng·h/mL.

Item: C[C@H]1CN2CCNCc3ccc(C(=O)NCC(F)F)c1c32 | AUC: 208

====

tested on: plasma protein; assay: clinical; conditions: human, oral, 15 mg, Day 11, Cohort 4A (15 mg BID)
Assay metric: fraction unbound at 11 day
Returns: the value as a bare number; no unit string appended.

Item C[C@H]1CN2CCNCc3ccc(C(=O)NCC(F)F)c1c32 [Compound 1] ; assay system plasma protein; fraction unbound at 11 day reported as 0.913

====

assay: Phase 1 multiple-dose study, plasma PK; assay type: in vivo, human; conditions: both sexes, human, plasma, oral, 6 mg, Day 9; Cohort 1 (6 mg TID); read-out: Plasma Cmax, geometric mean (geometric CV %)
Assay metric: Cmax (µg/mL)
Respond with the bare value in µg/mL.

Item: C[C@H]1CN2CCNCc3ccc(C(=O)NCC(F)F)c1c32 | Cmax: 0.0184

====

Experiment: Phase 1 multiple-dose study, plasma PK
Assay type: in vivo, human
Conditions: both sexes, human, plasma, oral, 12 mg, Day 8; Cohort 3 (12 mg BID); read-out: Plasma T1/2, mean (SD) (converted)
Experimental: Subjects were enrolled to 1 of 2 dosage regimens. Subject enrollment was stratified by sex to ensure approximate sex balance in each cohort. Morning doses were administered following a standard light breakfast (e.g., milk and cereal, toast, and fruit) on all days. TID dosing (three times a day) was approximately 8 hours apart. Subjects fasted from midnight onwards, until the morning breakfast each day. […]
Assay metric: half-life (h)
Respond with the bare value in h.

Item: C[C@H]1CN2CCNCc3ccc(C(=O)NCC(F)F)c1c32 [Compound 1] | half-life: 4.32

====

Test: Phase 1 multiple-dose study, plasma PK
Format: in vivo, human
Conditions: both sexes, human, plasma, oral, 18 mg, Day 10; Cohort 4B (18 mg BID); read-out: Plasma Tmax, median (minimum, maximum)
Description: Subjects were enrolled to 1 of 2 dosage regimens. Subject enrollment was stratified by sex to ensure approximate sex balance in each cohort. Morning doses were administered following a standard light breakfast (e.g., milk and cereal, toast, and fruit) on all days. TID dosing (three times a day) was approximately 8 hours apart. Subjects fasted from midnight onwards, until the morning breakfast each day. […]
Assay metric: Tmax (h)
Respond with the bare value in h.

Item: C[C@H]1CN2CCNCc3ccc(C(=O)NCC(F)F)c1c32 | Tmax: 1

====

test: Phase 1 multiple-dose study, plasma PK; format: in vivo, human; conditions: both sexes, human, plasma, oral, 3 mg, Day 1, single 3 mg dose, Cohort 1; read-out: plasma geometric mean Cmax
Assay metric: Cmax (ng/mL)
Respond with the bare value in ng/mL.

Item: C[C@H]1CN2CCNCc3ccc(C(=O)NCC(F)F)c1c32 [Compound 1] | Cmax: 4.7

====

experiment: Phase 1 multiple-dose study, plasma PK; format: in vivo, human; conditions: both sexes, human, plasma, oral, 15 mg, Day 8; Cohort 4A (15 mg BID); read-out: Plasma AUCtau, geometric mean (geometric CV %)
Assay metric: AUC (µg·h/mL)
Respond with the bare value in µg·h/mL.

Item: C[C@H]1CN2CCNCc3ccc(C(=O)NCC(F)F)c1c32 | AUC: 0.194

====

assay: Phase 1 multiple-dose study, plasma PK; assay type: in vivo, human; conditions: both sexes, human, plasma, oral, 12 mg, Day 9; Cohort 3 (12 mg BID); read-out: Plasma Tmax, median (minimum, maximum)
Assay metric: Tmax
State the value, then name its unit.

Item: C[C@H]1CN2CCNCc3ccc(C(=O)NCC(F)F)c1c32 | Tmax: 55.8 min

====

Assay: Phase 1 multiple-dose study, plasma PK
Type: in vivo, human
Details: both sexes, human, plasma, oral, 12 mg, Day 10; Cohort 2 (12 mg TID); read-out: Plasma Cmax, geometric mean (geometric CV %)
Procedure: Subjects were enrolled to 1 of 2 dosage regimens. Subject enrollment was stratified by sex to ensure approximate sex balance in each cohort. Morning doses were administered following a standard light breakfast (e.g., milk and cereal, toast, and fruit) on all days. TID dosing (three times a day) was approximately 8 hours apart. Subjects fasted from midnight onwards, until the morning breakfast each day. […]
Assay metric: Cmax (µg/mL)
Respond with the bare value in µg/mL.

Item: C[C@H]1CN2CCNCc3ccc(C(=O)NCC(F)F)c1c32 | Cmax: 0.0398

====

assay: Phase 1 multiple-dose study, plasma PK; assay type: in vivo, human; details: both sexes, human, plasma, oral, 18 mg, Day 8; Cohort 4B (18 mg BID); read-out: Plasma Cmax, geometric mean (geometric CV %)
Assay metric: Cmax (ng/mL)
Respond with the bare value in ng/mL.

Item: C[C@H]1CN2CCNCc3ccc(C(=O)NCC(F)F)c1c32 | Cmax: 43.2

====

assay: clinical; settings: both, human, CSF / free drug in plasma, oral, 6 mg, CSF/P Ctrough, mean (SD), CSF to free drug plasma ratio; Day 11; Cohort 1 (6 mg TID)
Assay metric: Kp
Returns: the value as a bare number; no unit string appended.

Item: C[C@H]1CN2CCNCc3ccc(C(=O)NCC(F)F)c1c32 | Kp: 1.26

====

experiment: Phase 1 multiple-dose study, plasma PK; assay type: in vivo, human; conditions: both sexes, human, plasma, oral, 18 mg, Day 9; Cohort 4B (18 mg BID); read-out: Plasma Tmax, median (minimum, maximum)
Assay metric: Tmax (min)
Respond with the bare value in min.

Item: C[C@H]1CN2CCNCc3ccc(C(=O)NCC(F)F)c1c32 | Tmax: 30
